Data provenance is patent US10100064B2.

target: PI3Kdelta (Homo sapiens, UniProt O00329); construct: Millipore 14-604; assay: HTRF PI3K biochemical assay, delta isoform; settings: 0.3 nM enzyme, 100 uM ATP, 5 uM PIP2, form screened (Neutral or TFA salt) given per compound
Sequence (O00329 whole entry, canonical isoform): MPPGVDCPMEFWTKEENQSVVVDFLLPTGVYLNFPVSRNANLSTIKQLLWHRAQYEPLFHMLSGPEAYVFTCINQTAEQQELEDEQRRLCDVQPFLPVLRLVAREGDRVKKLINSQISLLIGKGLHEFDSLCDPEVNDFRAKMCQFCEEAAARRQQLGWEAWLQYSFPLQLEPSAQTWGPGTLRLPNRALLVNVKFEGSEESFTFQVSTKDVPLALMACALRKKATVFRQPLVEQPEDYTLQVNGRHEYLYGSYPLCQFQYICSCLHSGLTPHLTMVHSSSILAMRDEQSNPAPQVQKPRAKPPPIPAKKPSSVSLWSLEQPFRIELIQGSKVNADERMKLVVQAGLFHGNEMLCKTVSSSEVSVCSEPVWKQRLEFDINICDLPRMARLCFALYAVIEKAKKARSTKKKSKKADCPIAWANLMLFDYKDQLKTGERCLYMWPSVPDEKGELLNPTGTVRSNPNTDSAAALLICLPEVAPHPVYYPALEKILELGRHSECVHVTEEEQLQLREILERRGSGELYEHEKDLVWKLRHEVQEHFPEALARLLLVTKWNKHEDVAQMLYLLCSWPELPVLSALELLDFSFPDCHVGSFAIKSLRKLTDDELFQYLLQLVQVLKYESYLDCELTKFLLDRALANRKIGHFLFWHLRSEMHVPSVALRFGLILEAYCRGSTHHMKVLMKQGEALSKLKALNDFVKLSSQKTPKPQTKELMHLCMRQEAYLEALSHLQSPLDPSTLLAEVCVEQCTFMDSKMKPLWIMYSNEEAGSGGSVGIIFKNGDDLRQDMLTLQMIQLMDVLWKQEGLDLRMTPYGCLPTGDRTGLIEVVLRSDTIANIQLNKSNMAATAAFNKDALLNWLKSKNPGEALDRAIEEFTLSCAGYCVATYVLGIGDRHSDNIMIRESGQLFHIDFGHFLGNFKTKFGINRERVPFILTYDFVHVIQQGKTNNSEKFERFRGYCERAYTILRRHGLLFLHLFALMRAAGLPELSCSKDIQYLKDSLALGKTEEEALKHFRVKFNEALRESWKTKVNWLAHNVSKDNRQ
Sequence (P27986 whole entry partner, canonical isoform): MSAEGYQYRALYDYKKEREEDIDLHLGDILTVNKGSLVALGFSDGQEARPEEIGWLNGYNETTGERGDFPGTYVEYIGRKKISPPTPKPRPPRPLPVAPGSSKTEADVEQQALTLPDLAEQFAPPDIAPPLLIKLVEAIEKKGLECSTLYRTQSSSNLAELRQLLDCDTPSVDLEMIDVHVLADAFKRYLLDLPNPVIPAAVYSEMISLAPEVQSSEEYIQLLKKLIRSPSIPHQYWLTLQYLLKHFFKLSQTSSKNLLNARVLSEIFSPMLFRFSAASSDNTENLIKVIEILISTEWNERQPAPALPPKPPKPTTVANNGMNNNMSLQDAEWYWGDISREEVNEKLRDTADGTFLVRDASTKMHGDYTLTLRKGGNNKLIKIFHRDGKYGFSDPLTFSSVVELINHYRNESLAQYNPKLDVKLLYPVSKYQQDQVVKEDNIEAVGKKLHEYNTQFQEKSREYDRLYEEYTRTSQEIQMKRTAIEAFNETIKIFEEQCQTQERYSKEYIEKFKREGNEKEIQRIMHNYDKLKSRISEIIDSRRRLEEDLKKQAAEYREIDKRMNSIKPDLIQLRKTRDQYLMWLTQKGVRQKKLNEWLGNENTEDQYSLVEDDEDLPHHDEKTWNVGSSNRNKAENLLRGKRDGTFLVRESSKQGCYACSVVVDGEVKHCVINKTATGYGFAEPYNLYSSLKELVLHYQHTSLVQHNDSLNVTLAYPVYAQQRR
PROPERTY NAME: IC50

What value of IC50 on PI3Kdelta (Homo sapiens, UniProt O00329) does CCn1c(-c2cnc(C)nc2)nc2c(NC3CCc4nc(C)n(C5CC5)c4C3)ncnc21 (single isomer, unassigned) [Compound 5-7] have?
19 nM

Provide the documented IC50 with PI3Kdelta (Homo sapiens, UniProt O00329) as the system for CCn1c(-c2cnc(C)nc2)nc2c(NC3CCn4cnc(C(C)C)c4C3)ncnc21 (single isomer, unassigned) [Compound 6-1]
10 nM

What reported IC50 corresponds to CCc1cnc2n1CC(Oc1ncnc3c1nc(-c1cnc(C)nc1)n3CC)C2 (racemic) [Compound 4-5] on PI3Kdelta (Homo sapiens, UniProt O00329)?
550 nM

State its IC50 on PI3Kdelta (Homo sapiens, UniProt O00329): CCn1c(-c2cnc(C)nc2)nc2c(NC3CCc4c(c(C(C)C)nn4C(=O)OC(C)C)C3)ncnc21 (racemic) [Compound 2-18]
< 1 nM
